Viable Cells% overview
# Test system: C6 cells
# Method Description: Annexin V FITC/PI flow cytometric analysis of apoptosis, C6 cells
# Format: cell-based, rat
# Condition Details: C6 cells, 24 h, compounds at IC50 values
Report as a plain number; the unit % is understood.

Consider the reported Viable Cells% for these compounds:
>  <Compound>
N#Cc1ccc(Oc2ccc(C=NNc3nc(-c4ccc(C#N)cc4)cs3)cc2)cc1 [Compound 6]

>  <Tested Target>
C6 cells

>  <Viable Cells% (%)>
42.2

$$$$
>  <Compound>
Cc1ccc(-c2csc(NN=Cc3ccc(Oc4ccc(C#N)cc4)cc3)n2)cc1 [Compound 7]

>  <Tested Target>
C6 cells

>  <Viable Cells% (%)>
69.2

$$$$
>  <Compound>
N#Cc1ccc(Oc2ccc(C=NNc3nc(-c4ccc(O)cc4)cs3)cc2)cc1 [Compound 8]

>  <Tested Target>
C6 cells

>  <Viable Cells% (%)>
49.7

$$$$

Now for another entry.
Entry N#Cc1ccc(Oc2ccc(C=NNC(N)=S)cc2)cc1 [Compound A] : reported Viable Cells% = ?
70.2
